Exercise: state measured normalized growth for each of the compounds provided.
- PROTOCOL NOTES: chemical genetic growth profiling, strain panel (AID 1159580);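 further: tested at 20 µM; growth read once vehicle control cultures reached saturation at 30 °C; 1 = growth at the plate median or of vehicle wells; lower values mean less growth of the strain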
- SETTINGS: S. cerevisiae deletion strains, growth OD, locus YDL108W, strain KIN28, stronger effect = lower value
About 2,000 (36%) of roughly 5,500 compounds were called active. Roughly 18% stayed inconclusive and do not appear here. The list shows a part of the results.
Answers are plain numbers.

Observe how each entry below is paired with its result.
>>> assay_result("CC(C)(O)C#Cc1ccc(/C=N\\Nc2ccccc2)cc1")
0.965
>>> assay_result("CSc1cccc(N2C(=O)CC(c3c(Cl)cccc3Cl)CC2=O)c1")
0.988
>>> assay_result("CCCC1c2ccsc2CCN1C(=S)Nc1ccc(Cl)cc1Cl (stereo not given)")
0.987
>>> assay_result("Cc1nc(C(F)(F)F)c(C(=O)O/N=C(/N)c2ccc(Cl)cc2)s1")
0.98
>>> assay_result("O=C(CCSc1cccs1)Nc1cccc(C(F)(F)F)c1")
0.946
>>> assay_result("N=C(N)SCc1nc(-c2ccc(Cl)cc2)no1")
0.976
>>> assay_result("N/C(=N/OC(=O)c1ccc(Cl)cc1)c1ccc(F)cc1F")
0.914
>>> assay_result("COc1cc(Cl)c(NS(=O)(=O)c2cc(Br)c(Br)s2)c(OC)c1")
0.957
>>> assay_result("CCC1CCC(C)N(C(=S)Nc2ccc(Br)cc2C)C1 (stereo not given)")
0.96
>>> assay_result("CCOC(=O)CCc1cc(N=Cc2cc(Br)ccc2O)c(O)c(N=Cc2cc(Br)ccc2O)c1")
0.959

Report normalized growth for every entry below.
1. CC1(C)C/C(=N/Nc2ccc(C(F)(F)F)cc2)c2cc(C(C)(C)C)c(O)c(O)c2O1
2. O=C(Nc1cccc(C(F)(F)F)c1)Oc1ccc(F)cc1Cl
3. CCCCCc1ccc(S(=O)(=O)Nc2ccc3c(c2)C(=O)OC3)cc1

A)
[0.976, 0.97, 0.982]

Please look at the items below and tell me normalized growth for each one, in order.
1. CCOC(=O)NC(=S)NC12CC3CC(CC(C3)C1)C2
2. CC(C)(O)C#Cc1ccc(/C=N\Nc2c(Cl)cc(Cl)cc2Cl)cc1
3. O=C(Nc1ccc(Cl)cc1Cl)c1cnccc1C(F)(F)F
4. OC(c1ccc(C(F)(F)F)cc1)c1cccc(C(F)(F)F)c1 (stereo not given)

A)
1. 0.957
2. 0.968
3. 0.97
4. 0.968

Batch request: normalized growth per item, same order as input.
1. O=C(CO/N=C\c1ccc(Cl)cc1Cl)NNC(=S)Nc1cc(Cl)ccc1Cl
2. COc1ccccc1C(C[N+](=O)[O-])c1c(N)n(C)c(=O)n(C)c1=O (stereo not given)
3. CCOC(=O)c1c(N=Cc2cc(Br)c(Br)cc2O)sc2c1CCCC2

A)
1. 1.01
2. 0.945
3. 0.959

* * *

- PROTOCOL NOTES: chemical genetic growth profiling, strain panel (AID 1159580)
- SETTINGS: S. cerevisiae deletion strains, growth OD, locus YDR162C, strain NBP2, stronger effect = lower value
Hit rate of the full screen: of about 5,500 compounds, about 2,000 (36%) were called active. Not shown: some 18% with an inconclusive outcome. The list shows a part of the results.
// boundary case: normalized growth equal to 1 maps to no; strictly smaller maps to yes

# count of solved cases: 3
>>> discrete_label("O=C(O)P(=O)(O)O")
"yes"
>>> discrete_label("CC1=C(/C=C/C(C)=C/C=C/C(C)=C\\C(=O)O)C(C)(C)CCC1")
"yes"
>>> discrete_label("C=CC1=C(C)/C(=C/c2[nH]c(Cc3[nH]c(/C=C4\\NC(=O)C(C)=C4C=C)c(C)c3CCC(=O)O)c(CCC(=O)O)c2C)NC1=O")
"no"

Q) # strict comparison: is reported normalized growth < 1? input = CN1CCc2cccc3c2C1Cc1ccc(O)c(O)c1-3 (stereo unspecified)
A) no

Q) Hello, is normalized growth of the following compound strictly smaller than 1? CC1(C)CC2C1CCC1(C)OC1CCC2(C)O (stereo unspecified)
A) no

* * *

- PROTOCOL NOTES: chemical genetic growth profiling, strain panel (AID 1159580)
- SETTINGS: S. cerevisiae deletion strains, growth OD, locus YGL248W, strain PDE1
Among all 5,500 compounds or so, about 2,000 (36%) were called active. Not shown: some 18% with an inconclusive outcome. Rule as the data show it: active = normalized growth mostly below about 0.91 (no sharp cut-off); inconclusive = no clear call, values can overlap the other calls; inactive = mostly above about 0.92. The list shows a part of the results.
Outcome field: choose from active, inactive

Q) Test call for this compound, please: COC(=O)[C@H]1[C@H]2C[C@@H]3c4[nH]c5cc(OC)ccc5c4CCN3C[C@H]2C[C@@H](OC(=O)c2cc(OC)c(OC)c(OC)c2)[C@@H]1OC
A) inactive

Q) Lab log entry: CC1=C(/C=C/C(C)=C/C=C/C(C)=C/C(=O)O)C(C)(C)CCC1 — outcome as called in the assay?
A) inactive

Q) Which outcome did this test record for the compound C/C=C/c1ccc(OC)cc1 ?
A) inactive

Q) Called result for Nc1nccs1
A) inactive

Q) Which result was noted for this compound in the test: CC[C@@H]1[C@@H](O)N2C3C[C@H]1C1C(O)[C@]4(C[C@@H]12)c1ccccc1N(C)[C@@H]34 (some centres undefined)
A) inactive

Q) Test call, this compound: CC1=C(/C=C/C(C)=C/C=C/C(C)=C/CO)C(C)(C)CCC1
A) inactive

* * *

Please provide measured normalized growth for the entries that follow.
- PROTOCOL NOTES: chemical genetic growth profiling, strain panel (AID 1159580);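 further: tested at 20 µM; growth read once vehicle control cultures reached saturation at 30 °C; 1 = growth at the plate median or of vehicle wells; lower values mean less growth of the strain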
- SETTINGS: S. cerevisiae deletion strains, growth OD, locus YCL061C, strain MRC1 (second series), stronger effect = lower value
The whole screen tested about 5,500 compounds, of which about 2,000 (36%) were called active. Another 18% or so got no clear call; they are omitted. The list shows a part of the results.
Numbers only.

>>> assay_result("COc1ccc2c(c1O)-c1cccc3c1[C@@H](C2)N(C)CC3")
1.01

For each entry beneath this line, provide reported normalized growth.
1. CCCn1c(=O)c2[nH]c(-c3ccc(OCC(=O)NCCN)cc3)nc2n(CCC)c1=O
2. CN[C@H](CC(C)C)C(=O)N[C@H]1C(=O)N[C@@H](CC(N)=O)C(=O)N[C@H]2C(=O)N[C@H]3C(=O)N[C@H](C(=O)N[C@H](C(=O)O)c4cc(O)cc(O)c4-c4cc3ccc4O)[C@H](O)c3ccc(c(Cl)c3)Oc3cc2cc(c3O[C@@H]2O[C@H](CO)[C@@H](O)[C@H](O)[C@H]2O[C@H]2C[C@](C)(N)[C@H](O)[C@H](C)O2)Oc2ccc(cc2Cl)[C@H]1O
3. CCCN1CCOC2c3cc(O)ccc3OCC21 (stereo not given)
4. CCCN1CCc2cccc3c2[C@H]1Cc1ccc(O)c(O)c1-3
5. c1ccc2c(c1)OCC(C1=NCCN1)O2 (stereo not given)
6. CCN(CCCl)Cc1ccccc1Br
7. Oc1ccc(/C=C/c2cc(O)cc(O)c2)cc1

A)
[0.984, 1.01, 0.993, 0.516, 1, 0.994, 0.987]

# map each compound to its normalized growth
1. Oc1ccc2c3c1O[C@H]1c4oc5ccccc5c4C[C@@]4(O)C(C2)N(CC2CC2)CCC314 (stereo not given in full)
2. NC(=O)c1cnccn1

A)
1. 1
2. 1.01

* * *

- PROTOCOL NOTES: chemical genetic growth profiling, strain panel (AID 1159580);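 further: tested at 20 µM; growth read once vehicle control cultures reached saturation at 30 °C; 1 = growth at the plate median or of vehicle wells; lower values mean less growth of the strain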
- SETTINGS: S. cerevisiae deletion strains, growth OD, locus YDR335W, strain msn5
About 2,000 (36%) of roughly 5,500 compounds were called active. Not shown: some 18% with an inconclusive outcome. Cut-off read from the data, not from the text of the source: active = normalized growth mostly below about 0.91 (no sharp cut-off); inconclusive = no clear call, values can overlap the other calls; inactive = mostly above about 0.92. This is one part of the list.
Hi! Could you answer with just one of these? class 1 for active, class 0 for inactive

>>> discrete_label("C[C@@H]1C[C@@H]([C@H](O)CC2CC(=O)NC(=O)C2)C(=O)[C@@H](C)C1")
"class 1"

Lab note: next compound to report on.
Q) How did this test come out for CC[C@@H]1[C@@H](O)N2C3C[C@H]1C1C(O)[C@]4(C[C@@H]12)c1ccccc1N(C)[C@@H]34 (stereo partly drawn) ?
A) class 0

* * *

- PROTOCOL NOTES: chemical genetic growth profiling, strain panel (AID 1159580);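 further: tested at 20 µM; growth read once vehicle control cultures reached saturation at 30 °C; 1 = growth at the plate median or of vehicle wells; lower values mean less growth of the strain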
- SETTINGS: S. cerevisiae deletion strains, growth OD, locus YDR159W, strain sac3, stronger effect = lower value
Screen size: about 5,500 compounds; about 2,000 (36%) were called active. Roughly 18% stayed inconclusive and do not appear here. The list shows a part of the results.
METRIC: normalized growth
Give bare numbers.

Past entries and their recorded results:
>>> assay_result("CO[C@@H]1[C@@H](O[C@@H]2O[C@H](C)[C@@H](O[C@H]3C[C@@](C)(O)[C@H](O)[C@H](C)O3)[C@H](N(C)C)[C@H]2O)[C@@H](CC=O)C[C@@H](C)[C@@H](O[C@H]2CC[C@H](N(C)C)[C@@H](C)O2)/C=C/C=C/C[C@H](C)OC(=O)C[C@H]1O")
1.01
>>> assay_result("CC1=CC(=O)CC(C)(C)C1(O)/C=C/C(C)=C\\C(=O)O (stereo not given)")
1.03
>>> assay_result("COc1ccc(/C=C/C(=O)c2ccc(O)cc2O)cc1")
0.355
>>> assay_result("OC/C=C/c1ccc(O)c(O)c1")
0.966
>>> assay_result("COc1ccc(/C=C/C(=O)O)cc1OC")
0.94

Need normalized growth for each of these compounds.
1. CC12CCC(CC1)C(C)(C)O2
2. COc1cc(/C=C/C(=O)O)ccc1O
3. Oc1ccc(/C=C/c2cc(O)cc(O)c2)cc1
4. OC1CCCCC1N1CCC(c2ccccc2)CC1 (stereo not given)
5. COc1ccc2c(c1O)-c1c(OC)c(OC)cc3c1[C@H](C2)N(C)CC3

A)
[1.01, 0.98, 0.954, 0.997, 1]
